# measured.on: Cytochrome P450 2C19 (Homo sapiens) (UniProt P33261)
# Sequence (P33261 whole entry, looked up): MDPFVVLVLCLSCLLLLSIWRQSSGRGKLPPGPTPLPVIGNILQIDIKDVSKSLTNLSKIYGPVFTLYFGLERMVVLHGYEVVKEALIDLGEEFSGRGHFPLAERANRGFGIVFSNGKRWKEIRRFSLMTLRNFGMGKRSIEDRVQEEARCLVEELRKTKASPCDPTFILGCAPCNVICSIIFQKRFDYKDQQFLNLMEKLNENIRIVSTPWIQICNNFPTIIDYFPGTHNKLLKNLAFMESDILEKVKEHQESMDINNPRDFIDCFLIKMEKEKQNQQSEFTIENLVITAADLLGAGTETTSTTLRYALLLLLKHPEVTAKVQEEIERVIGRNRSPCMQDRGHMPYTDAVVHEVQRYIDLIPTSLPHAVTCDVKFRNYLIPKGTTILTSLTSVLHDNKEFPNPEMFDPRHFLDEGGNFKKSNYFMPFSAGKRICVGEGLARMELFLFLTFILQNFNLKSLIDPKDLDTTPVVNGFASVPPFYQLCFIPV
# assay.overview: Cytochrome panel assay with activity outcomes
# assay.conditions: recombinant CYP, pro-luciferin dealkylation, luminescence, p450-cyp2c19; series mostly up to 57.1 µM
Out of some 16,000 compounds screened, about 5,800 (36%) were called active. Roughly 23% stayed inconclusive and do not appear here. The call rests on the fitted dose curve; in most records, active means well fitted curve in the direction sought with a large enough effect; inconclusive means small, poorly fitted or top-dose-only effect, or effect the other way; inactive means no such curve, though single readings can be large or run the other way. This is one part of the list.
// classify into active, inactive

- compound: "COc1ccc(C(=O)NCS(=O)(=O)c2ccc(C)cc2)cc1"
  assigned.category: "active"
- compound: "COC(=O)[C@@H]1C[C@H]1[C@@H](NC(=O)c1cnccn1)c1ccccc1"
  assigned.category: "inactive"
- compound: "Cc1ccc(OCC(O)Cn2c3ccccc3c3ccccc32)cc1 (stereo not given)"
  assigned.category: "active"

Hi, sorry to bother you, what did the test record for `Cc1ccccc1C(=O)N1CCc2ccccc2C1` ?
active

Hi, sorry to bother you, what did the test record for `CCCCCOc1ccc(OC(=O)c2ccncc2)cc1` ?
active

Hi, sorry to bother you, what did the test record for Cc1cccc(C)c1OCC(O)CNC(C)(C)C (stereo not given) ?
inactive

Hi, sorry to bother you, what did the test record for `COC(=O)[C@@H]1C[C@H]1[C@@H](NC(=O)c1cc(C)on1)c1ccccc1` ?
active

Hi, sorry to bother you, what did the test record for `N=C(N)N1CCc2ccccc2C1` ?
inactive

Hi, sorry to bother you, what did the test record for Cc1ccccc1OCC(O)Cn1c(NCc2ccccc2)nc2c1c(=O)[nH]c(=O)n2C (stereo not given) ?
inactive

Hi, sorry to bother you, what did the test record for `CCOc1ccc(Cc2nccc3cc(OCC)c(OCC)cc23)cc1OCC` ?
inactive

###

# measured.on: Cytochrome P450 2C19 (Homo sapiens)
# assay.overview: Cytochrome panel assay with activity outcomes
# assay.conditions: recombinant CYP, pro-luciferin dealkylation, luminescence, p450-cyp2c19; series mostly up to 57.1 µM
Screen size: about 16,000 compounds; about 5,800 (36%) were called active. Not shown: some 23% with an inconclusive outcome. Calls follow the shape of the dose curve; as a rule, active = well fitted curve in the direction sought with a large enough effect; inconclusive = small, poorly fitted or top-dose-only effect, or effect the other way; inactive = no such curve, though single readings can be large or run the other way. This is one part of the list.
// classify into true (1) for active, false (0) for inactive

Example results:
- smiles.repr: "O=C(OCc1nnc(-c2ccccc2)o1)c1ccc2c(c1)OCCO2"
  assigned.category: "true (1)"
- smiles.repr: "Cc1nnc(C)n1/N=C/c1ccc(-c2ccccc2)cc1"
  assigned.category: "false (0)"

Hi, sorry to bother you, what did the test record for `COCC(=O)N1CCC2(CC1)CN(C(c1ccccc1)c1ccccc1)C2` ?
false (0)

###

# measured.on: Cytochrome P450 2C19 (Homo sapiens) (UniProt P33261)
# assay.overview: Cytochrome panel assay with activity outcomes
# assay.conditions: recombinant CYP, pro-luciferin dealkylation, luminescence, p450-cyp2c19; series mostly up to 57.1 µM
Among all 16,000 compounds or so, about 5,800 (36%) were called active. Another 23% or so got no clear call; they are omitted. Calls follow the shape of the dose curve; as a rule, active = well fitted curve in the direction sought with a large enough effect; inconclusive = small, poorly fitted or top-dose-only effect, or effect the other way; inactive = no such curve, though single readings can be large or run the other way. This is one part of the list.
// classify into active, inactive

Example results:
- smiles.repr: "S=C(Nc1ccccc1)Nc1ccccc1C#Cc1ccccc1"
  assigned.category: "active"
- smiles.repr: "C[C@@H](CN1CCC(Cc2ccccc2)CC1)[C@H](O)c1ccc(O)cc1"
  assigned.category: "inactive"

# evaluate next
Hi, sorry to bother you, what did the test record for `C[C@@H](CN1CCC(Cc2ccccc2)CC1)[C@@H](O)c1ccc(O)cc1` ?
inactive

// data source = PubChem BioAssay AID1851
